Tested on: K24384-001-R-PDC complex spheroid growth
protocol-details: Anticancer human tumor K24384-001-R-PDC patient-derived pancreatic adenocarcinoma cell line growth inhibition [AhR]
assay-context: second compound 1 µM; first compound 0.00949 µM; stronger effect = lower value
measure: viability, T/C

Sample records with viability, T/C:
CCc1c2c(nc3ccc(O)cc13)-c1cc3c(c(=O)n1C2)COC(=O)[C@]3(O)CC + CC(CO)NC(=O)c1cc(-c2ccc(Cl)cc2)nn(-c2cnn(C)c2)c1=O = 51.5%
CC(C)CC(NC(=O)C(Cc1ccccc1)NC(=O)c1cnccn1)B(O)O (centres undefined) + Cc1cncc(-c2nc(NCCc3c[nH]c4ccccc34)c3ncn(C(C)C)c3n2)c1 = 56.6%
Nc1ncn(C2CC(O)C(CO)S2)c(=O)n1 (centres undefined) + CC(CO)NC(=O)c1cc(-c2ccc(Cl)cc2)nn(-c2cnn(C)c2)c1=O = 148%

query: Observed viability, T/C on K24384-001-R-PDC complex spheroid growth for CC(C)CC(NC(=O)C(Cc1ccccc1)NC(=O)c1cnccn1)B(O)O (centres undefined) + CC(CO)NC(=O)c1cc(-c2ccc(Cl)cc2)nn(-c2cnn(C)c2)c1=O , please.
result: 22.2%

* * *

System: K24384-001-R-PDC complex spheroid growth
protocol-details: Anticancer human tumor K24384-001-R-PDC cell line growth inhibition [AhR]
assay-context: curve of first compound; second compound 0.1 µM
pIC50: −log10 of the molar value.
Quick reference for pIC50 among some molecules

Nc1ncn(C2CC(O)C(CO)O2)c(=O)n1 (stereo unspecified) + CC(CO)NC(=O)c1cc(-c2ccc(Cl)cc2)nn(-c2cnn(C)c2)c1=O = < 6.00
Nc1ncn(C2CC(O)C(CO)O2)c(=O)n1 (stereo unspecified) + Cc1ccccc1N=Nc1ccc(NC(=O)c2ccnn2C)c(C)c1 = < 6.00

query: Suppose we examine the molecule CC(C)c1c(-c2ccccc2)nc2c(C#N)c[nH]n2c1=O + Cc1cncc(-c2nc(NCCc3c[nH]c4ccccc34)c3ncn(C(C)C)c3n2)c1 ; what pIC50 value has been reported?
result: < 5.00

query: Suppose we examine the molecule CCN(c1cc(-c2ccc(CN3CCOCC3)cc2)cc(C(=O)NCc2c(C)cc(C)[nH]c2=O)c1C)C1CCOCC1 + Cc1cncc(-c2nc(NCCc3c[nH]c4ccccc34)c3ncn(C(C)C)c3n2)c1 ; what pIC50 value has been reported?
result: < 5.52

query: Suppose we examine the molecule Nc1ncn(C2CC(O)C(CO)S2)c(=O)n1 (stereo unspecified) + CC(CO)NC(=O)c1cc(-c2ccc(Cl)cc2)nn(-c2cnn(C)c2)c1=O ; what pIC50 value has been reported?
result: < 6.52

query: Suppose we examine the molecule COc1cc(Nc2ncc3c(n2)-c2ccc(Cl)cc2C(c2c(F)cccc2OC)=NC3)ccc1C(=O)O + Cc1ccccc1N=Nc1ccc(NC(=O)c2ccnn2C)c(C)c1 ; what pIC50 value has been reported?
result: < 5.00

* * *

Quick reference for viability, T/C among some compounds
Tested on: K24384-001-R-PDC complex spheroid growth
protocol-details: Anticancer human tumor K24384-001-R-PDC cell line growth inhibition [AhR];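 for viability, T/C: percent of DMSO vehicle-treated spheroid viability set as 100%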
assay-context: second compound 0.316 µM; first compound 3.16 µM; stronger effect = lower value
Report the figure in % without appending any unit label.

query: Suppose we examine the compound Nc1ccn(C2OC(CO)C(O)C2(F)F)c(=O)n1 (stereo not drawn) + Cc1ccccc1N=Nc1ccc(NC(=O)c2ccnn2C)c(C)c1 ; what viability, T/C value has been reported?
result: 19.2

query: Suppose we examine the compound CC1(C)CCC(CN2CCN(c3ccc(C(=O)NS(=O)(=O)c4ccc(NCC5CCOCC5)c([N+](=O)[O-])c4)c(Oc4cnc5[nH]ccc5c4)c3)CC2)=C(c2ccc(Cl)cc2)C1 + CC(CO)NC(=O)c1cc(-c2ccc(Cl)cc2)nn(-c2cnn(C)c2)c1=O ; what viability, T/C value has been reported?
result: 106

query: Suppose we examine the compound COc1cc(C2c3cc4c(cc3C(OC3OC5COC(C)OC5C(O)C3O)C3COC(=O)C23)OCO4)cc(OC)c1O (stereo not drawn) + Cc1ccccc1N=Nc1ccc(NC(=O)c2ccnn2C)c(C)c1 ; what viability, T/C value has been reported?
result: 36.5

* * *

System: K24384-001-R-PDC complex spheroid growth
protocol-details: Anticancer human tumor K24384-001-R-PDC cell line growth inhibition [AhR]
assay-context: curve of first compound; second compound 0.1 µM
Quick reference for IC50 among some molecules

CC(C)c1c(-c2ccccc2)nc2c(C#N)c[nH]n2c1=O + CC(CO)NC(=O)c1cc(-c2ccc(Cl)cc2)nn(-c2cnn(C)c2)c1=O = > 10 µM
CCN(c1cc(-c2ccc(CN3CCOCC3)cc2)cc(C(=O)NCc2c(C)cc(C)[nH]c2=O)c1C)C1CCOCC1 + CC(CO)NC(=O)c1cc(-c2ccc(Cl)cc2)nn(-c2cnn(C)c2)c1=O = > 3 µM
CC[C@@]1(O)C(=O)OCc2c1cc1n(c2=O)Cc2cc3c(CN(C)C)c(O)ccc3nc2-1 + Cc1ccccc1N=Nc1ccc(NC(=O)c2ccnn2C)c(C)c1 = 0.0281 µM
Cn1ncnc1C1c2n[nH]c(=O)c3cc(F)cc(c23)NC1c1ccc(F)cc1 (stereo unspecified) + Cc1ccccc1N=Nc1ccc(NC(=O)c2ccnn2C)c(C)c1 = > 0.1 µM
CC1COCCN1c1cc(C2(S(C)(=N)=O)CC2)nc(-c2ccnc3[nH]ccc23)n1 (stereo unspecified) + Cc1cncc(-c2nc(NCCc3c[nH]c4ccccc34)c3ncn(C(C)C)c3n2)c1 = 3.22 µM

query: Suppose we examine the molecule NS(=O)(=O)OCC1CC(n2ccc3c(NC4CCc5ccccc54)ncnc32)CC1O (stereo unspecified) + CC(CO)NC(=O)c1cc(-c2ccc(Cl)cc2)nn(-c2cnn(C)c2)c1=O ; what IC50 value has been reported?
result: 0.984 µM

query: Suppose we examine the molecule Cn1ncnc1C1c2n[nH]c(=O)c3cc(F)cc(c23)NC1c1ccc(F)cc1 (stereo unspecified) + CC(CO)NC(=O)c1cc(-c2ccc(Cl)cc2)nn(-c2cnn(C)c2)c1=O ; what IC50 value has been reported?
result: > 0.1 µM

query: Suppose we examine the molecule O=C(c1cc(Cc2n[nH]c(=O)c3ccccc23)ccc1F)N1CCN(C(=O)C2CC2)CC1 + Cc1cncc(-c2nc(NCCc3c[nH]c4ccccc34)c3ncn(C(C)C)c3n2)c1 ; what IC50 value has been reported?
result: > 10 µM

query: Suppose we examine the molecule O=C(c1cc(Cc2n[nH]c(=O)c3ccccc23)ccc1F)N1CCN(C(=O)C2CC2)CC1 + Cc1ccccc1N=Nc1ccc(NC(=O)c2ccnn2C)c(C)c1 ; what IC50 value has been reported?
result: > 10 µM

query: Suppose we examine the molecule CC(C)c1c(-c2ccccc2)nc2c(C#N)c[nH]n2c1=O + Cc1ccccc1N=Nc1ccc(NC(=O)c2ccnn2C)c(C)c1 ; what IC50 value has been reported?
result: > 10 µM

query: Suppose we examine the molecule O=C(c1cc(Cc2n[nH]c(=O)c3ccccc23)ccc1F)N1CCN(C(=O)C2CC2)CC1 + CC(CO)NC(=O)c1cc(-c2ccc(Cl)cc2)nn(-c2cnn(C)c2)c1=O ; what IC50 value has been reported?
result: > 10 µM

* * *

Test system: K24384-001-R-PDC complex spheroid growth
protocol-details: Anticancer human tumor K24384-001-R-PDC cell line growth inhibition [AhR];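 for viability, T/C: percent of DMSO vehicle-treated spheroid viability set as 100%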
assay-context: second compound 0.316 µM; first compound 3.16 µM; stronger effect = lower value
measure: viability, T/C (%)
Report the figure in % without appending any unit label.

CC1COCCN1c1cc(C2(S(C)(=N)=O)CC2)nc(-c2ccnc3[nH]ccc23)n1 (stereo not given) + Cc1cncc(-c2nc(NCCc3c[nH]c4ccccc34)c3ncn(C(C)C)c3n2)c1 = 58.8
CC1(C)CCC(CN2CCN(c3ccc(C(=O)NS(=O)(=O)c4ccc(NCC5CCOCC5)c([N+](=O)[O-])c4)c(Oc4cnc5[nH]ccc5c4)c3)CC2)=C(c2ccc(Cl)cc2)C1 + Cc1ccccc1N=Nc1ccc(NC(=O)c2ccnn2C)c(C)c1 = 118
O=C(C=Cc1cccc(S(=O)(=O)Nc2ccccc2)c1)NO + Cc1cncc(-c2nc(NCCc3c[nH]c4ccccc34)c3ncn(C(C)C)c3n2)c1 = 30.3
CC(C)c1c(-c2ccccc2)nc2c(C#N)c[nH]n2c1=O + Cc1ccccc1N=Nc1ccc(NC(=O)c2ccnn2C)c(C)c1 = 104
COc1cc(C2c3cc4c(cc3C(OC3OC5COC(C)OC5C(O)C3O)C3COC(=O)C23)OCO4)cc(OC)c1O (stereo not given) + CC(CO)NC(=O)c1cc(-c2ccc(Cl)cc2)nn(-c2cnn(C)c2)c1=O = 30

query: Suppose we examine the compound Nc1ccccc1NC(=O)c1ccc(CNC(=O)OCc2cccnc2)cc1 + Cc1cncc(-c2nc(NCCc3c[nH]c4ccccc34)c3ncn(C(C)C)c3n2)c1 ; what viability, T/C value has been reported?
result: 31

* * *

System: K24384-001-R-PDC complex spheroid growth
protocol-details: Anticancer human tumor K24384-001-R-PDC cell line growth inhibition [AhR]; active = viability on the fitted dose curve at most 10% of control; inactive = the rest
assay-context: second compound 0.316 µM; first compound 3.16 µM
Give one outcome, nothing more. List: 1 for active, 0 for inactive

Reference set, count: 3
COc1cccc2c1C(=O)c1c(O)c3c(c(O)c1C2=O)CC(O)(C(=O)CO)CC3OC1CC(N)C(O)C(C)O1 (centres undefined) + Cc1ccccc1N=Nc1ccc(NC(=O)c2ccnn2C)c(C)c1 = 1
O=C(C=Cc1cccc(S(=O)(=O)Nc2ccccc2)c1)NO + Cc1ccccc1N=Nc1ccc(NC(=O)c2ccnn2C)c(C)c1 = 0
CC1COCCN1c1cc(C2(S(C)(=N)=O)CC2)nc(-c2ccnc3[nH]ccc23)n1 (centres undefined) + Cc1ccccc1N=Nc1ccc(NC(=O)c2ccnn2C)c(C)c1 = 0

Here is another molecule to look at.
query: Identify the outcome logged in this assay for the molecule shown: NS(=O)(=O)OCC1CC(n2ccc3c(NC4CCc5ccccc54)ncnc32)CC1O (centres undefined) + CC(CO)NC(=O)c1cc(-c2ccc(Cl)cc2)nn(-c2cnn(C)c2)c1=O
result: 0
